The values you see were collected from PubChem BioAssay (Tox21).

- assay: A CellTox Green Cytotoxicity Assay to monitor cytotoxicity in HEK293 cells - 32 hour (AID 1224881); further: on the % scale 0 is the no-effect control and ±100 the full control effect; nearly all actives have a fitted effect of over 40% in size
- condition-info: CellTox Green fluorescence; series mostly up to 76.8 µM
Results filed as inconclusive are left out. Calls of active or inactive are those of the source. The call rests on the fitted dose curve; in most records, active means well fitted activation curve with a large enough effect in the repeat runs; inconclusive means weak or mixed curves; inactive means flat fitted curve, though single readings scatter.
quantity-kind: outcome

Some entries whose results are on file:
compound: COCC(C)N(C(=O)CCl)c1c(C)csc1C (stereo not given)
outcome: inactive

compound: CCOP(=S)(OCC)SCn1nnc2ccccc2c1=O
outcome: inactive

compound: O=C(O)COc1ccc(Cl)cc1
outcome: inactive

compound: CO/N=C(/C(=O)OC)c1ccccc1COc1ccccc1C
outcome: inactive

compound: CC1(C)CCC(Cc2ccc(Cl)cc2)C1(O)Cn1cncn1 (stereo not given)
outcome: inactive

compound: C=CCCl
outcome: inactive

compound: CCCCCC[N+](=O)[O-]
outcome: inactive

compound: C[N+](C)(C)CCCl
outcome: inactive

compound: CCC(Cl)CCl (stereo not given)
outcome: inactive

compound: CC(C)=CCOc1c2occc2cc2ccc(=O)oc12
outcome: inactive

Please look up its outcome: `O=[N+]([O-])c1ccccc1CCl`
inactive

Please look up its outcome: `O=Cc1ccc(Cl)cc1Cl`
inactive

Please look up its outcome: `CC(C)(OO)c1ccccc1`
inactive

Please look up its outcome: CC(Cl)C(C)Cl (stereo not given)
inactive

Please look up its outcome: `CC(C)O.CC(C)O.OCCN(CCO)CCO.OCCN(CCO)CCO.[Ti]`
inactive

###

- subject-of-test: Progesterone receptor (Homo sapiens) (UniProt P06401)
- Sequence (P06401 whole entry, looked up): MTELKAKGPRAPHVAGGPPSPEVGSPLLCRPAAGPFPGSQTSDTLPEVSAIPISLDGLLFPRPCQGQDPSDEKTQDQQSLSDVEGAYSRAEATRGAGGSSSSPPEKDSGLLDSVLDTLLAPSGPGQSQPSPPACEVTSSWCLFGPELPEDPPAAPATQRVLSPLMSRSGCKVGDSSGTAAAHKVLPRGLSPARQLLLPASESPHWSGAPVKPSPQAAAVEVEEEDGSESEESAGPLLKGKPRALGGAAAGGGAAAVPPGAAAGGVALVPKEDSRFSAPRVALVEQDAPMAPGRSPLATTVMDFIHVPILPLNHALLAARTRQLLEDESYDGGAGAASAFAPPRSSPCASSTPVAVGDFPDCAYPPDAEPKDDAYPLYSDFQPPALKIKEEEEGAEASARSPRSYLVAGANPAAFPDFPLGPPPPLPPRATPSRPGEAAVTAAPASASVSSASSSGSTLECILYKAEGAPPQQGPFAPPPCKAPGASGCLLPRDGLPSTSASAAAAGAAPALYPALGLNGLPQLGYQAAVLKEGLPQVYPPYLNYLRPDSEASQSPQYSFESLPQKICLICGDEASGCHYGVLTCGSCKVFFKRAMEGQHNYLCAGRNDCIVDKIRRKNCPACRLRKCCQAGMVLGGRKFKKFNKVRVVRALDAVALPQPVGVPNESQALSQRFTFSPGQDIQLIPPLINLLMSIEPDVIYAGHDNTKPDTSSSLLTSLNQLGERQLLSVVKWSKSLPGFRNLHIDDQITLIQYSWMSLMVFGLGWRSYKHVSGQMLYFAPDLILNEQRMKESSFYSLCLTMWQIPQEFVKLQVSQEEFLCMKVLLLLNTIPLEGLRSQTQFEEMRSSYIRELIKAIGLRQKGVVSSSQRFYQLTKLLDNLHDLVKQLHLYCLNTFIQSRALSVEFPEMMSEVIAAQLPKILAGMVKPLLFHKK
- assay: qHTS assay to identify small molecule antagonists of the progesterone receptor (PR) signaling pathway (AID 1346795)
- condition-info: PR-UAS-bla HEK293T, beta-lactamase FRET ratio, 16 h; series mostly up to 92.4 µM
Records with an inconclusive call do not appear. Calls of active or inactive are those of the source. The call rests on the fitted dose curve; in most records, active means well fitted inhibition curve with a large enough effect in the signal ratio in the repeat runs (not every such curve was filed as active); inconclusive means weak or mixed curves; inactive means flat fitted curve, though single readings scatter; the % refers to the signal ratio.
Permitted responses: 1 (yes) for active, 0 (no) for inactive

Outcome logged for `CCN(C)N=O` in this assay:
0 (no)

Outcome logged for `CCOP(=O)(OCC)O/C(=C/Cl)c1ccc(Cl)cc1Cl` in this assay:
1 (yes)

Outcome logged for `CCCCCC[N+](=O)[O-]` in this assay:
0 (no)

Outcome logged for `CCOP(=O)(OCC)SCCSCC` in this assay:
0 (no)

Outcome logged for CN1C(=O)C(O)N=C(c2ccccc2)c2cc(Cl)ccc21 (centres undefined) in this assay:
0 (no)

###

- Tested on: estrogen-related receptor alpha (ERRalpha) with PGC-1alpha coactivator, human
- assay: qHTS assay to identify small molecule antagonists of the estrogen related receptor signaling pathway with the pleiotropic PPARgamma coactivator (PGC) (AID 1224821); further: nearly all actives have a fitted effect of over 50% in size
- condition-info: ERR/PGC reporter cell line, luciferase, antagonist mode; series mostly up to 92.2 µM
Results filed as inconclusive are left out. The source made the active and inactive calls. Calls come from the whole dose curve.
Permitted responses: TRUE (active), FALSE (inactive)

# count of solved cases: 5
compound: c1cc2ccc3cccc4ccc(c1)c2c34
class-assignment: FALSE
//
compound: CC(=O)[C@H]1CC[C@H]2[C@@H]3CC[C@H]4C[C@](C)(O)CC[C@]4(C)[C@H]3CC[C@]12C
class-assignment: FALSE
//
compound: OCCCBr
class-assignment: FALSE
//
compound: NC(=O)CI
class-assignment: TRUE
//
compound: NCC(CC(=O)O)c1ccc(Cl)cc1 (stereo not drawn)
class-assignment: FALSE

Outcome logged for `CC(C)=CCOc1c2occc2cc2ccc(=O)oc12` in this assay:
FALSE

Outcome logged for `CCCCOC(=O)c1ccccc1C(=O)OCc1ccccc1` in this assay:
FALSE

Outcome logged for `C=CC(=O)NCNC(=O)C=C` in this assay:
FALSE
